Measured values drawn from PubChem BioAssay (NCI) for this set.

PROCEDURE SUMMARY: NCI Yeast Anticancer Drug Screen. Data for the cln2 rad14 strain (AID 165);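 further: 0% = growth equal to vehicle treated cultures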
TEST CONTEXT: S. cerevisiae cln2 rad14 strain, at 50.0 µM, hits give high values
Description: Growth inhibition of yeast strains with defined genetic alterations is measured as a screen for potential anti-cancer activity. Selected strains with alterations in DNA damage repair or cell cycle control were exposed to compounds and growth inhibition was measured relative to vehicle treated controls. The strain used in this assay is cln2 rad14
About 79,000 compounds went through this panel and 15% of them were active in at least one assay; those are over-represented in the sample as a whole.
Could you please report measured growth inhibition for the items listed next?
Numeric only. Scale: %

Data request: Look at this compound and give its reported growth inhibition. O=C(O)c1cc(O)c(O)c(Cl)c1
Data returned: -9

Data request: Look at this compound and give its reported growth inhibition. COc1cc(C)c(OC)c(C/C=C(\C)CC2=C(CC(C)(C)O)C(=O)[C@]3(C)CCC[C@]3(C)C2)c1
Data returned: 4.35

Data request: Look at this compound and give its reported growth inhibition. CC(=O)OC(C)=O
Data returned: -33

Data request: Look at this compound and give its reported growth inhibition. CC(=O)N=Cc1c(O)[nH]c2ccccc12
Data returned: 6.85

Data request: Look at this compound and give its reported growth inhibition. C/C(=N\N(C)S(=O)(=O)c1ccc(C)cc1)c1ccccc1
Data returned: -30.1

Data request: Look at this compound and give its reported growth inhibition. CC(=O)Oc1cc(C)c2c(c1C)C1OC(=O)C(C)C1CC2 (configuration not stated)
Data returned: 16.3

Data request: Look at this compound and give its reported growth inhibition. CCOC(=O)c1c2ccc(/C=C/c3ccccn3)ccc-2c(C(=O)OCC)c1N
Data returned: 13

Data request: Look at this compound and give its reported growth inhibition. [Cl][Ce]([Cl])[Cl]
Data returned: 16.4

Data request: Look at this compound and give its reported growth inhibition. COc1ccc(/C=C2\N=C(c3cc(OC)c(OC)c(OC)c3)OC2=O)cc1OC
Data returned: 29.9

Data request: Look at this compound and give its reported growth inhibition. C=Cc1c(Cl)cccc1Cl
Data returned: 3.5

Data request: Look at this compound and give its reported growth inhibition. CCCOCOCCC
Data returned: -28.4

Data request: Look at this compound and give its reported growth inhibition. Cc1ccccc1C(c1ccccc1C)C(CC(=O)O)CC(=O)O
Data returned: -102

Data request: Look at this compound and give its reported growth inhibition. CC(=O)c1nc2ccccc2n1CC(=O)c1ccc([N+](=O)[O-])cc1
Data returned: -8

Data request: Look at this compound and give its reported growth inhibition. COc1cc(C2CC=CCC2C(=O)O)cc(OC)c1OC (configuration not stated)
Data returned: 7.95

Data request: Look at this compound and give its reported growth inhibition. COC(=O)[C@H]1O[C@H]1c1cccc[n+]1[O-]
Data returned: -24.6

Data request: Look at this compound and give its reported growth inhibition. CC(C)(C)/C(=N\[N+](C)(C)C)c1ccccc1
Data returned: -1.3

Data request: Look at this compound and give its reported growth inhibition. CC/C=C(C)/C=N\NC(=O)c1ccc[n+](C)c1
Data returned: 23.6

Data request: Look at this compound and give its reported growth inhibition. O=C1/C(=C\c2ccccc2)Cc2cc3c(cc21)OCO3
Data returned: -15.9

Data request: Look at this compound and give its reported growth inhibition. CC1(O)/C=C\C=C(\CO)C2CC(C)(C)C2(O)CC1 (configuration not stated)
Data returned: -4.5

Data request: Look at this compound and give its reported growth inhibition. CCOc1ccc(CN(CCN2CCCCC2)c2ccccn2)cc1
Data returned: -7.4

Data request: Look at this compound and give its reported growth inhibition. O=C(O)COCC(=O)N(CCOCCN(Cc1ccccc1)C(=O)COCC(=O)O)Cc1ccccc1
Data returned: 26.6

Data request: Look at this compound and give its reported growth inhibition. N#Cc1ccc(OCCCOc2ccccc2)cc1
Data returned: -2.7
